target system: Luciferin 4-monooxygenase (Photinus pyralis) (UniProt P08659)
test details: Primary firefly luciferase (FLuc) qHTS assay for identification of artifact compounds. (AID 1845220); note: nearly all actives have a fitted effect of over 60% in size
reported conditions: purified firefly luciferase, luminescence, 5 min; series mostly up to 54.1 µM
Active and inactive are the calls of the source. Calls come from the whole dose curve; as a rule, active = well fitted inhibition curve with a large enough effect; inconclusive = small, poorly fitted or top-dose-only effect; inactive = flat fitted curve, though single readings scatter.
test readout: outcome

C[C@H]1[C@H](C)CC[C@]2(C(=O)O[C@@H]3O[C@H](CO)[C@@H](O)[C@H](O)[C@H]3O)CC[C@]3(C(=O)O)C(=CCC4[C@@]5(C)CC[C@H](O[C@@H]6O[C@H](CO)[C@@H](O)[C@H](O)[C@H]6O)C(C)(C)C5CC[C@]43C)[C@H]12 (some centres not stated) ... inactive [at 11.6 µM]
C=CC(C)(O)CC/C=C(\C)C(=O)OCC1OC(OC2CCC3(C)C(CCC4(C)C3CC=C3C5CC(C)(C)C(O)CC5(C(=O)O)CCC34C)C2(C)C)C(O)C(OC2OC(CO)C(O)C(OC3OC(CO)C(O)C(OC4OC(COC5OC(CO)C(O)C(O)C5O)C(O)C(O)C4O)C3O)C2O)C1O (configuration not stated) ... inactive [at 11.6 µM]

* * *

target system: Phenylethanolamine N-methyltransferase (Homo sapiens)
test details: Confirmatory Screen for Target Class Profiling of Small Molecule Inhibitors of Methyltransferases (AID 1745852)
reported conditions: MTase-Glo luminescence, SAH detection, recombinant enzyme; measured here: PNMT max response; stronger effect = lower value
test readout: activity (%)
# output: bare number, implied unit %

Completed entries (count: 6):
CC(C)(O)/C=C1/C(=O)C(C)(C)C(=O)C(C)(C)C1(O)O[C@@H]1O[C@H](COC(=O)c2cc(O)c(O)c(O)c2)[C@@H](O)[C@H](O)[C@H]1O (some centres not stated) ... -0.785
COc1cc(N2CCC(O)CC2)ccc1Nc1cc(Nc2ccccc2S(=O)(=O)C(C)C)c2cc[nH]c2n1 ... 0.382
COc1ccc(/C=C/C(=O)O[C@@H]2[C@@H](OC(C)=O)[C@@H](OC(C)=O)[C@H](O[C@H]3[C@@H]4C=CO[C@@H](O[C@@H]5O[C@H](CO)[C@@H](O)[C@H](O)[C@H]5O)[C@@H]4[C@@]4(CO)O[C@@H]34)O[C@H]2C)cc1O ... -9.65
CC1(C)CC[C@]2(C(=O)O[C@@H]3O[C@H](CO)[C@@H](O)[C@H](O)[C@H]3O)CC[C@]3(C)C(=CCC4[C@@]5(C)C[C@@H](O)[C@H](O)[C@@](C)(CO)C5CC[C@]43C)C2C1 (some centres not stated) ... -4.38
COC(=O)C1=CO[C@@H](O[C@@H]2O[C@H](COC(=O)/C=C/c3cc(OC)c(O)c(OC)c3)[C@@H](O)[C@H](O)[C@H]2O)[C@@H]2C(CO)=CC[C@H]12 ... -3.37
CC(CCC1C(C(=O)O)=CC(=O)CC1(C)C)O[C@@H]1O[C@H](CO)[C@@H](O)[C@H](O)[C@H]1O (some centres not stated) ... -4.16

The record that follows has no activity shown yet.
# input compound: CN1CCC(c2c[nH]c3ccc(NC(=O)c4ccc(F)cc4)cc23)CC1 ; wanted: its activity
-4.53

* * *

Tested on: KB-3-1
test details: Cytotoxic Profiling of Annotated Libraries Using Quantitative High-Throughput Screening (AID 1296008); note: % is set by controls: 0 for no effect and ±100 for the full control effect; nearly all actives have a fitted effect of over 60% in size
reported conditions: Five cell lines viability, CellTiter-Glo ATP luminescence, 48-72 h; stronger effect = lower value
Protocol: Cell-based phenotypic screening is a commonly used approach to discover biological pathways, novel drug targets, chemical probes and high-quality hit-to-lead molecules. […] A pintool (Kalypsys) was used to transfer 23 nL of compound solution to the 1536-well assay plates. […] Plates were left at room temperature for 10 min before imaging the ATP-coupled luminescence using a ViewLux microplate imager (PerkinElmer, Waltham, MA).
Inconclusive results are not listed.
test readout: max response (%)
Report as a plain number; the unit % is understood.

These recorded examples may help you get a feel for the data.
C=C(C(=O)O)[C@@H]1CC=C2CCC[C@H](C)[C@@]2(C)C1 ... 4.53
C=CC1(C)CC2=CCC3C(C)(C(=O)O)CCCC3(C)C2CC1OC(C)=O (stereo not drawn) ... 0.0592
CN(C)CC/C=C1/c2ccccc2CSc2ccccc21 ... -13.6
CC(=O)O[C@@H]1[C@@H](OC(=O)/C=C/c2ccccc2)[C@H](C)O[C@@H](O[C@H]2[C@@H]3C=CO[C@@H](O[C@@H]4O[C@H](CO)[C@@H](O)[C@H](O)[C@H]4O)[C@@H]3[C@@]3(CO)O[C@@H]23)[C@@H]1OC(C)=O ... 5.32
O=C(O[C@H]1[C@@H]2C=CO[C@@H](O[C@@H]3O[C@H](CO)[C@@H](O)[C@H](O)[C@H]3O)[C@@H]2[C@@]2(CO)O[C@@H]12)c1ccc(O)cc1 ... 3.57
CC1=C2[C@@H]([C@H](C)CC[C@H]2/C=C(\C)C(=O)O)[C@H](O)C1 ... 3.15

Can you look up the measured max response of COc1cc(/C=C/C(=O)OC[C@H]2O[C@H](O[C@]3(CO)O[C@H](CO)[C@@H](O)[C@@H]3O)[C@H](O)[C@@H](O)[C@@H]2O)cc(OC)c1O for me?
-1.09

State the recorded max response for this entry: C=C[C@H]1[C@H](O[C@@H]2O[C@H](CO)[C@@H](O)[C@H](O)[C@H]2O)OC=C(C(=O)OC)[C@H]1C[C@@H]1N[C@H](C(=O)O)Cc2c1[nH]c1ccccc21
-4.8
